- TARGET_DESC: human GAL2 receptor (Homo sapiens, UniProt O43603)
- Construct: expressed in transfected cells; membranes
- Sequence (O43603 1-387): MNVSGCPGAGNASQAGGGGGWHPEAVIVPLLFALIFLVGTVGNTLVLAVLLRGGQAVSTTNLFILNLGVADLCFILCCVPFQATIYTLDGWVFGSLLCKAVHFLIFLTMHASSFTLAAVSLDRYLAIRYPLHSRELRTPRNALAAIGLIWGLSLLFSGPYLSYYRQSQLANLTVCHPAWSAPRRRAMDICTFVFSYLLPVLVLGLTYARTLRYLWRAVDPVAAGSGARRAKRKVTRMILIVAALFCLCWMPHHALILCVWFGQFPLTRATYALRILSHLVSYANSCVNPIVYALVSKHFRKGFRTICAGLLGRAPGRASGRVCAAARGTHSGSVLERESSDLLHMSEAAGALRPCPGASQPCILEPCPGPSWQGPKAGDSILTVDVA
- EXPERIMENT_DESCRIPTION: Radioligand binding at cloned human GAL2 receptor
- CONDITION_SET: pyrimidines, read-out: Ki GalR2
QUANTITY_KIND: Ki (nM)
One number for each entry, in nM.

>>> df
                                   compound  quantity_kind  reported_measurement
0  COCCN(c1ccc(C)cc1)c1cc(N2CCCCC2)nc(NCCc2c[nH]c3ccccc23)n1 [Example 19]             Ki                  1770

Asked: Need Ki, item Cc1ccc(Nc2cc(N(C)C)nc(N3CCc4ccccc43)n2)cc1 [Example 75]
Given back: 245

###

These molecules were tested on UniProtKB Q9WTR4; pKi is the recorded read-out.
pKi: −log10 of the molar value.

Example cases with answers are listed next.
                                   molecule  quantity_kind  reported_measurement
0  Cc1ccc(Nc2cc(N3CCCCC3)nc(N(C)CCc3ccccc3)n2)cc1 [Example 22]            pKi                  4.88
1  CN(CCc1c[nH]c2ccccc12)c1nc(Nc2ccc(F)c(F)c2)cc(N2CCCCC2)n1 [Example 15]            pKi                < 4.30
2  Cc1ccc(Nc2cc(N3CCCCC3)nc(N(C)CCc3c[nH]c4ccccc34)n2)cc1 [Example 11]            pKi                < 4.30

Asked: Please state recorded pKi (tested on UniProtKB Q9WTR4) of Cc1ccc(Nc2cc(N3CCCCC3)nc(N3CCN(c4ncccc4C(F)(F)F)CC3)n2)cc1 [Example 34]
Given back: < 4.30
